# Tested on: P. vulgaris A21559
# experiment.description: M.I.C., tube dilution
# Assay type: cell-based
# measurement.conditions: Proteus vulgaris, A21559, overnight incubation at 37° C., Nutrient Broth; read-out: MIC
experimental.readout: MIC (µg/mL)
// units = µg/mL; emit number, no label

Field request: MIC | item: C[C@@H](O)[C@H]1C(=O)N2C(C(=O)[O-])=C(SCc3ccc[n+](C)c3)C[C@H]12 0.016

Param item = C[C@@H](O)[C@H]1C(=O)N2C(C(=O)[O-])=C(SCc3n(Cc4ccccc4)cc[n+]3C)C[C@H]12 ; retrieve measured MIC. 0.008

Given the entry C[C@@H](O)[C@H]1C(=O)N2C(C(=O)[O-])=C(SCc3cs[n+](C)n3)C[C@H]12 , report its measured MIC. 0.03

For C[C@@H](O)[C@H]1C(=O)N2C(C(=O)[O-])=C(SCc3n(C)cc[n+]3C)C[C@H]12 , what is its reported MIC? 0.008

Fill in the blank: the reported MIC of CC(SC1=C(C(=O)[O-])N2C(=O)[C@H]([C@@H](C)O)[C@H]2C1)c1cc[n+](C)cc1 (stereo partly drawn) is ____. 0.016

Need MIC, item C[C@@H](O)[C@H]1C(=O)N2C(C(=O)[O-])=C(SCc3n(C)nc[n+]3C)C[C@H]12 0.016

# lookup: MIC of Cc1c(CSC2=C(C(=O)[O-])N3C(=O)[C@H]([C@@H](C)O)[C@H]3C2)ccc[n+]1C 0.016

Returns the measured MIC for the input compound. Input: Cc1sc(CSC2=C(C(=O)[O-])N3C(=O)[C@H]([C@@H](C)O)[C@H]3C2)c(C)[n+]1C 0.016

Look at this compound and give its reported MIC. Cc1scc(CSC2=C(C(=O)[O-])N3C(=O)[C@H]([C@@H](C)O)[C@H]3C2)[n+]1C 0.03

Any idea what MIC was measured for C[C@@H](O)[C@H]1C(=O)N2C(C(=O)[O-])=C(SCc3cn(C)n[n+]3C)C[C@H]12 ? 0.008

What value of measured MIC is listed for C[C@@H](O)[C@H]1C(=O)N2C(C(=O)[O-])=C(SCc3cc[n+](C)cc3)C[C@H]12 ? 0.13

# MIC lookup, item Cc1ccc[n+](C)c1CSC1=C(C(=O)[O-])N2C(=O)[C@H]([C@@H](C)O)[C@H]2C1 0.008

---

# Tested on: P. mirabilis A-9900
# experiment.description: Protective effect in intramuscular treatment of infected mice
# Format: in vivo
# measurement.conditions: Proteus mirabilis, im; mice, i.m.; P. mirabilis A9900; read-out: PD50/treatment
experimental.readout: ED50 (mg/kg)
The answer is to be given in mg/kg; state only the numeric part.

Could you share which ED50 value was measured for C[C@@H](O)[C@H]1C(=O)N2C(C(=O)[O-])=C(SCc3n(C)cc[n+]3C)C[C@H]12 ? 7.1

# get_value(readout='ED50', item= C[C@@H](O)[C@H]1C(=O)N2C(C(=O)[O-])=C(SCc3ccc[n+](C)c3)C[C@H]12 ) 2

Please look up its ED50: Cc1ccc[n+](C)c1CSC1=C(C(=O)[O-])N2C(=O)[C@H]([C@@H](C)O)[C@H]2C1 2.4

Please report the recorded ED50 for Cc1scc(CSC2=C(C(=O)[O-])N3C(=O)[C@H]([C@@H](C)O)[C@H]3C2)[n+]1C . 1.4

// lookup ED50 for C[C@@H](O)[C@H]1C(=O)N2C(C(=O)[O-])=C(SCc3cccc[n+]3C)C[C@H]12 4
